Every entry's value here was drawn from ChEMBL document CHEMBL2417434.

Target: Tyrosine-protein phosphatase non-receptor type 1 (Homo sapiens)
Sequence (P18031 whole entry): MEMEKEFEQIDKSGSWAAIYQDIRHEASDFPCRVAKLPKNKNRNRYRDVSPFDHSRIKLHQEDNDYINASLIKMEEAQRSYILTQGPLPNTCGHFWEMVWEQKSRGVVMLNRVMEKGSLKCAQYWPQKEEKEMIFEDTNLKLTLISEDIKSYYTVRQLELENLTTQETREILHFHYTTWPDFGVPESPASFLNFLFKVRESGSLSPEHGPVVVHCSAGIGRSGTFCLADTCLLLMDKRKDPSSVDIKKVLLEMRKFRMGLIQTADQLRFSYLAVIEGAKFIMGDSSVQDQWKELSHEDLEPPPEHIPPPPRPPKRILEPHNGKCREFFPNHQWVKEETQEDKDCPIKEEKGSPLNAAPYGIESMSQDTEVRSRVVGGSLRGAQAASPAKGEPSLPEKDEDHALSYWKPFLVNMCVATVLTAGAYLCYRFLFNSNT
Experiment: Inhibition of PTP1B (unknown origin)
Conditions: read-out: IC50
VALUE KIND: IC50 (µM)
Reply with just the number (in µM).

IN: Tell me the measured IC50 of O=C(OC1CS[S+]([O-])C1)c1ccccc1I (centres undefined) , please.
OUT: 29.7

IN: Item under review: `O=C(OC1CSSC1)c1cc([N+](=O)[O-])cc([N+](=O)[O-])c1` . Reported IC50?
OUT: 14.8

IN: What does the record list as IC50 for `O=C(OC1CSSC1)c1ccc(I)cc1` ?
OUT: 33.4

IN: Using the record for O=C(OC1CS[S+]([O-])C1)c1cc2ccccc2[nH]1 (centres undefined) , report its IC50.
OUT: 31.4
